# Tested on: E. coli assay strain Km3
# Test: Liquid B-galactosidase assays of chlorsulfuron repressor hits (induction and repression)
# Recorded conditions: CsL4.2 hits; 20 ppb Cs vs no inducer
Kind request: treat 10 as inclusive, so F. IND = fold induction (IND/REP) (B-galactosidase) at 10 or higher is Fulfilled, anything lower is Not fulfilled.

Query :: Quick check: does L8-3F01: library L8 chlorsulfuron repressor hit, parent for saturation mutagenesis (protein, Sulfonylurea responsive repressor, library L8 chlorsulfuron repressor hit, parent for saturation mutagenesis) MARLDKSKVINSALELLNEVGIEGLTTRKLAQKLGVEQPTLYWHVKNKRALLDALAIEMMDRHQTHYLPLEGESWQDFLRNNAKSCRRALLSHRDGAKVCLGTRWTEQQYETAENMLAFLTQQGFSLENALYAVSAVRVFTLGAVLFDQESQVAKEERETPTTDSMPPLLRQAWELKDHQGAEPAFLFGLELIIAGLEKQLKRESGS have F. IND = fold induction (IND/REP) (B-galactosidase) greater than or equal to 10?
Result :: Not fulfilled

Query :: Quick check: does CsL4.2-22 (protein, Sulfonylurea responsive repressor) MARLDKSKVINSALELLNEVGIEGLTTRKLAQKLGVEQPTLYWHVKNKRALLDALAIEMHDRHQTHYLPLEGESWQDFLRNFAKSMRRALLSHRDGAKIALGTRWTEQQYETAENMLAFLTQQGFSLENALYATDAVRVFTLGAVLLDQEQQVAKEERETPTPDSMPPLLRQAWELKDHQGAEPAFLFGLELIIAGLEKQLKRESGSHHHHHH have F. IND = fold induction (IND/REP) (B-galactosidase) greater than or equal to 10?
Result :: Fulfilled

Query :: Quick check: does CsL4.2-17 (protein, Sulfonylurea responsive repressor) MARLDKSKVINSALELLNEVGIEGLTTRKLAQKLGVEQPTLYWHVKNKRALLDALAIEMMDRHQTHYLPLEGESWQDYLRNFAKSMRCALLSHRDGAKVALGTRWTEQQYETAENMLAFLTQQGFSLENALYATSAVRVFTLGAVLLDQEQQVAKEERETPTTDSMPPLLRQAWELKVHQGAEPAFLFGLELIIAGLEKQLKRESGSHHHHHH have F. IND = fold induction (IND/REP) (B-galactosidase) greater than or equal to 10?
Result :: Not fulfilled

Query :: Quick check: does CsL4.2-26 (protein, Sulfonylurea responsive repressor) MARLDKSKVINSALELLNEVGIEGLTTRKLAQKLGVEQPTLYWHVKNKRALLDALAIEMHDRHQTHYLPLEGESWQDYLRNFAKSMRCALLSHRDGAKVSLGTRWTEQQYETAENMLAFLTQQGFSLENALYATSAVRVFTLGAVLLDQEQQVAKEERETPTPDRMPPLLRQAWELKVHQGAEPAFLFGLELIIAGLEKQLKRESGSHHHHHH have F. IND = fold induction (IND/REP) (B-galactosidase) greater than or equal to 10?
Result :: Fulfilled

Query :: Quick check: does CsL4.2-24 (protein, Sulfonylurea responsive repressor) MARLDKSKVINSALELLNEVGIEGLTTRKLAQKLGVEQPTLYWHVKNKRALLDALAIEMHDRHQTHYLPLEGESWQDYLRNFAKSMRCALLSHRDGAKVALGTRWTEQQYETAENMLAFLTQQGFSLENALYATSAVRVFTLGAVLLDQEGQVANEERETPTPDSMPPLLRQAWELKVHQGAEPAFLFGLELIIAGLEKQLKRESGSHHHHHH have F. IND = fold induction (IND/REP) (B-galactosidase) greater than or equal to 10?
Result :: Fulfilled

The values you see were collected from patent US20160152995A1.
